target: HDAC6 (Homo sapiens, UniProt Q9UBN7); experiment: In vitro histone deacetylase assay: enzymatic HDAC6 electrophoretic mobility shift assay; conditions: full length human recombinant HDAC6, 1 nM enzyme, 2 μM peptide substrate RHKK(Ac)-NH2, 25° C.; read-out: Inhibitory Concentration (IC50) Values for Representative Compounds against HDAC6, Activity Range
Sequence (Q9UBN7 whole entry): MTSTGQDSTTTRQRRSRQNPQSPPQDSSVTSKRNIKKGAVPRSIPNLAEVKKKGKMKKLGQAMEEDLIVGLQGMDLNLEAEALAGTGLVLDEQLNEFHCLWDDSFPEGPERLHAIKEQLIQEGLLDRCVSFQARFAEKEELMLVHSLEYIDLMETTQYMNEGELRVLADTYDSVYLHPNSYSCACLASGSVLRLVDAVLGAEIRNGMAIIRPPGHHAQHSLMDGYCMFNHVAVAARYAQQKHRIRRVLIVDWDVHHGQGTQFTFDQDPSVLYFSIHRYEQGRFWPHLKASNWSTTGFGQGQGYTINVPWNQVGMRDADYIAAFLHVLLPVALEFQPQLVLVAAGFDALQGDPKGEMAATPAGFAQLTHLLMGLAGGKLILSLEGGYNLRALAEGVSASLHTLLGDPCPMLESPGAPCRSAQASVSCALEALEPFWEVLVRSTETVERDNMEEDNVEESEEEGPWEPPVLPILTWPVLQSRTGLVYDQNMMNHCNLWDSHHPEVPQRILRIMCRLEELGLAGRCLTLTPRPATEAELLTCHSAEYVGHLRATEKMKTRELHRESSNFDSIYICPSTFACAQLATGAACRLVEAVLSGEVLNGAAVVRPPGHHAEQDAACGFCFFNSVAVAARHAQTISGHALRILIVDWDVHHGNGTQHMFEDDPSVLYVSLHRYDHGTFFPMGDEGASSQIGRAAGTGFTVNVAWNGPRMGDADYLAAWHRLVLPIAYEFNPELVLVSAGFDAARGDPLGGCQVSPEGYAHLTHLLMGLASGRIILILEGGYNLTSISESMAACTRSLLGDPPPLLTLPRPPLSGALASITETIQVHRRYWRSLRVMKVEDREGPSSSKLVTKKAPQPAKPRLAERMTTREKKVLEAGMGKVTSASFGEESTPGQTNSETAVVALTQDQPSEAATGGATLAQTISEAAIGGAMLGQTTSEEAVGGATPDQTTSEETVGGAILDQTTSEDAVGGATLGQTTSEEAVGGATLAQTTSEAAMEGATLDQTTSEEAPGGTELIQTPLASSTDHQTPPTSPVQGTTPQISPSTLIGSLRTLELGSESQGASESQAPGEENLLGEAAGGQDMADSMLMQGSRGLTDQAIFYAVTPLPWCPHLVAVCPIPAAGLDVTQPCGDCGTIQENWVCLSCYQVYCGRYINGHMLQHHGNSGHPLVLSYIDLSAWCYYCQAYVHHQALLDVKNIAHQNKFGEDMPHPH
pIC50: −log10 of the molar value.
Consider the following compounds; for each one, report its pIC50.

- COMPOUND: "COc1ccc(S(=O)(=O)N2Cc3ccc(C(=O)NO)cc3OC[C@@H]2C)cc1"
  pIC50: "6.30 to 7.00"
- COMPOUND: "COc1ccc(CN2Cc3ccc(C(=O)NO)cc3O[C@@H](C)C2)cc1"
  pIC50: "6.30 to 7.00"
- COMPOUND: "Cc1ccccc1N1Cc2ccc(C(=O)NO)cc2OC[C@@H]1C"
  pIC50: "≥ 7.00"
- COMPOUND: "CC1COCCN1C(=O)N1CCOc2cc(C(=O)NO)ccc2C1 (centres unmarked)"
  pIC50: "6.30 to 7.00"
- COMPOUND: "COc1ccc(CN2CC(=O)N(C)c3ccc(C(=O)NO)cc3C2)cc1"
  pIC50: "< 6.30"
- COMPOUND: "COC(=O)N1Cc2ccc(C(=O)NO)cc2OC[C@@H]1C"
  pIC50: "≥ 7.00"
- COMPOUND: "COc1ccc(S(=O)(=O)N2CCOc3nc(C(=O)NO)ccc3C2)cc1"
  pIC50: "< 6.30"
- COMPOUND: "CC(=O)N1CCCC(CN2CC(=O)Nc3ccc(C(=O)NO)cc3C2)C1 (centres unmarked)"
  pIC50: "< 6.30"
- COMPOUND: "O=C1CN(Cc2cc(F)ccc2F)Cc2cc(C(=O)NO)ccc2N1"
  pIC50: "6.30 to 7.00"
- COMPOUND: "CC[C@H]1COc2cc(C(=O)NO)ccc2CN1c1ccccc1C"
  pIC50: "≥ 7.00"

Hey, quick one: what's pIC50 for each of these?
1. COc1ccc(CN2CC(=O)Nc3ccc(C(=O)NO)cc3C2)c(F)c1
2. C[C@H]1COc2cc(C(=O)NO)ccc2CN1c1cccc(C(F)(F)F)c1
3. COc1ccc(NC(=O)N2Cc3ccc(C(=O)NO)cc3O[C@H](C(C)C)C2)cc1
4. CC(C)[C@H]1COc2cc(C(=O)NO)ccc2CN1c1cccnc1

Key:
1. ≥ 7.00
2. 6.30 to 7.00
3. < 6.30
4. ≥ 7.00
